# Tested on: U251 CNS
# Assay: NCI tumour cell line growth inhibition, 48 h
Recorded TGI by entry

Compound	Target Or System	TGI
Nc1nc(Cl)cc2c1ncn2C1OC(CO)C(O)C1O (centres undefined)	U251 CNS	> 100 µM
C=C1CN(C(=O)c2cc3cc(OC)c(OC)c(OC)c3[nH]2)c2cc([N+](=O)[O-])ccc21	U251 CNS	> 100 µM
COc1cc(C(C)(C)C)c(OC(=O)/C=C/C(=O)O/C=C/[N+](=O)[O-])c(C(C)(C)C)c1	U251 CNS	> 100 µM
Oc1cccc(-c2cc(=S)ss2)c1	U251 CNS	28.5 µM
COc1ncn(C2C=C(CO)C(O)C2O)c(=O)n1 (centres undefined)	U251 CNS	> 100 µM
N.N.NCCCCN.O=C([O-])CCl.O=C([O-])CCl.O=C([O-])CCl.O=C([O-])CCl.[Pt+4].[Pt+4]	U251 CNS	> 50 µM
COc1ccc(/C=N/N=C(N)N)c(C(=O)O)c1OC	U251 CNS	> 100 µM
NC(N)=Nc1nc2cc(N)ccc2o1	U251 CNS	> 100 µM
COC(=O)CC[C@@H](NC(=O)C(C)NC(=O)COC1C(O)C(COC(=O)CCCCCCCCCCNC(=O)c2ccc([N+](=O)[O-])c3[nH]c4cc(Br)ccc4c(=O)c23)OC(OCc2ccccc2)C1NC(C)=O)C(N)=O (some centres undefined)	U251 CNS	> 100 µM
O=C1/C(=C/c2ccc(F)cc2)CN(Cc2cn(CCNc3ccnc4cc(Cl)ccc34)nn2)C/C1=C\c1ccc(F)cc1	U251 CNS	2.68 µM
CC([C@H]1CCC2C3CCC4C(=O)C(NC=O)=CC[C@]4(C)C3CC[C@@]21C)N(C)C (some centres undefined)	U251 CNS	15.2 µM
COC(=O)C1=C(SC)SC2(C(=O)OC)C3C=C(C)C4C(N13)C42C(=O)OC (centres undefined)	U251 CNS	> 100 µM
CN(C)CCNc1ccccn1	U251 CNS	> 100 µM
COc1cc(Oc2cnc3cc(N)cc(N)c3n2)cc(OC)c1OC	U251 CNS	> 100 µM
COc1ccc(-c2cc(-c3ccco3)c(C#N)c(=O)n2C2OC(OC(=O)c3ccccc3)C(OC(=O)c3ccccc3)C2OC(=O)c2ccccc2)cc1 (centres undefined)	U251 CNS	> 100 µM
CCC(C)CNC1=C(NC(C)=O)C(=O)c2ccccc2C1=O (centres undefined)	U251 CNS	> 100 µM
COc1ccc2c(c1)Cc1cc(N=[N+]([O-])c3ccc4c(c3)Cc3cc(OC)ccc3-4)ccc1-2	U251 CNS	30.8 µM
S=c1sc2ccccc2n1CN1CCN(Cc2ccccc2)CC1	U251 CNS	> 100 µM
CCCc1c(OC)c(O)c2c(=O)cc(OC)c3c4c(OC)cc(=O)c5c(O)c(OC)c(CCC)c(c1c23)c54	U251 CNS	6.41 µM

###

# System: MDA-MB-231 breast
# Assay: NCI tumour cell line growth inhibition, 48 h; in the data active = GI50 below about 0.43 µM; inactive = the rest
Classes used: active, inactive

Compound	Assigned Label
O=C(/C=C/c1ccco1)c1ccc(Nc2ccnc3cc(Cl)ccc23)cc1	inactive
CC(C)=CCNc1ncnc2c1ncn2C1OC(COP(=O)(O)O)C(O)C1O (centres undefined)	inactive
CCSc1sc(-c2ccc(C)cc2)nc1[P+](c1ccccc1)(c1ccccc1)c1ccccc1	active
O=C1C=Cc2cc3ccccc3c3cccc1c23	inactive
COC(=O)c1ccc2c(c1)CCN2C(=O)c1cc2c(cc1Br)OCO2	inactive
COc1ccc(-c2ccc(/C=N/n3cnn(CN4CCN(C)CC4)c3=S)o2)c([N+](=O)[O-])c1	inactive
COc1ccc(/C(C#N)=C/c2nc3c(N4CCOCC4)nc(Cl)nc3n2C)cc1OC	active
COc1cccc(-n2cnc3c(N/N=C/c4ccncc4)ncnc32)c1	inactive
N=C(N)c1ccc(-c2ccc(-c3ccco3)o2)cc1	inactive

###

# System: NCI-H226 lung
# Assay: NCI tumour cell line growth inhibition, 48 h
Test Readout: TGI (µM)

Molecule	Qualifier	Assay Value
COc1cc(C(C)(C)C)c(OC(=O)/C=C/C(=O)O/C=C/[N+](=O)[O-])c(C(C)(C)C)c1	>	100
COC(=O)c1ccc2c(c1)CCN2C(=O)c1cc2c(cc1Br)OCO2	=	4.44
N#CC1(Cc2ccccc2Cl)c2ccccc2C=CN1C(=O)c1ccccc1 (centres undefined)	>	100
CC1(C)OC2C(CO)OC(/N=C(\NC#N)Oc3ccccc3)C2O1 (centres undefined)	>	100
COc1ccc(-c2cc(-c3ccco3)c(C#N)c(=O)n2C2OC(OC(=O)c3ccccc3)C(OC(=O)c3ccccc3)C2OC(=O)c2ccccc2)cc1 (centres undefined)	>	100
C/C(=N\NC(=S)N/N=C(\C)c1ccccn1)c1ccccn1	=	3.78
CC(C)CCC[C@@H](C)C1CCC2[C@@H]3CC=C4C[C@@H](OC(=O)CCC(=O)NCC[N+](C)(C)CCCS(=O)(=O)[O-])CC[C@]4(C)C3CC[C@@]21C (some centres undefined)	=	50.5
Clc1ccc2nc3c(c(-c4ccccc4)nn3-c3ccccc3)c(-c3ccccc3)c2c1	>	100
c1cc(C2O[C@H]3CCCN3[C@@H]2c2ccncc2)ccn1 (some centres undefined)	>	100
CC(C)=CCNc1ncnc2c1ncn2C1OC(COP(=O)(O)O)C(O)C1O (centres undefined)	=	33.9
COc1cc2[nH]c(=O)[nH]c2c2c(C)c[nH]c12	>	100
COc1cc(/C=C/C(=O)OC[C@]23O[C@H]2[C@@H](OC2OC(C)C(O)C(O)C2O)C2C=CO[C@@H](OC4OC(CO)C(O)C(O)C4O)C23)ccc1O (some centres undefined)	>	100
COC(=O)/C=C1\C(=O)N(C(C)=O)c2ccccc21	=	27.8
COc1ccc(C2CC(c3cccc(Nc4ccnc5cc(Cl)ccc45)c3)=NN2c2ccccc2)cc1 (centres undefined)	=	63.8
C(=C/c1ccc2nc(-c3ccc(/C=C/C=N/NC4=NCCCN4)cc3)cn2c1)/C=N/NC1=NCCCN1	=	32.6
CC(=O)c1c[nH]c2ccc(-c3ccnc(Nc4ccc(NC(=O)c5cccc(F)c5)c(CN5CCOCC5)c4)n3)cc12	=	1.76
COC12OC3(C4OC41)C(C(=O)O[C@H]3CO[Si](C)(C)C(C)(C)C)C2S(=O)(=O)c1ccccc1 (some centres undefined)	>	100
CC1CN=C(c2ccc3c(c2)Cc2cc(C4=NCC(C)N4)ccc2-3)N1 (centres undefined)	>	100
CCOC(=O)C(C(N)=O)c1nc2cc([N+](=O)[O-])ccc2nc1/C=C(\O)c1ccc(C)cc1 (centres undefined)	>	100

###

# Tested on: UACC-62 melanoma
# Assay: NCI tumour cell line growth inhibition, 48 h
Where a SMILES comes first, the peptide text is derived from it. [ ]: non-standard residue; d: D form. The star is where a group is joined. ξ: configuration not given here. 4Abz = Nc1ccc(C(=O)O)cc1; ξL = CC(C)CC(N)C(=O)O; NHOH = ON*

Molecule	TGI
CC(C)OCC(O)COc1cc(=O)oc2ccccc12 (stereo not drawn)	> 100 µM
O=c1[nH]c(=O)n(COCCO)cc1-c1ccccc1	> 100 µM
Clc1ccc2nc3c(c(-c4ccccc4)nn3-c3ccccc3)c(-c3ccccc3)c2c1	> 100 µM
Cc1cc(CC(O)(C(F)(F)F)C(F)(F)F)cc(CC(O)(C(F)(F)F)C(F)(F)F)n1	12.5 µM
COC(=O)/C=C1\C(=O)N(C(C)=O)c2ccccc21	18.4 µM
COc1ccc(-n2cc(-c3ccc(Cl)cc3)[nH]c2=S)cc1Cl	> 100 µM
O=C1CCCn2c3ccccc3c3ccnc1c32	98 µM
COc1ccc(-c2ccc(/C=N/n3cnn(CN4CCN(C)CC4)c3=S)o2)c([N+](=O)[O-])c1	40 µM
CC(CCC(=O)O)(c1cc(Br)c(O)c(Br)c1)c1cc(Br)c(O)c(Br)c1	> 100 µM
CS(=O)(=O)c1ccc(C2=C(c3ccccc3)C(=O)OC2)cc1	> 100 µM
CC1=NN(C(=O)CC(=O)Nc2ccccc2)C(=O)C1N=Nc1ccc(S(N)(=O)=O)cc1 (stereo not drawn)	92.6 µM
CCOC(=O)C(C(N)=O)c1nc2cc([N+](=O)[O-])ccc2nc1/C=C(\O)c1ccc(C)cc1 (stereo not drawn)	> 72.3 µM
CCCCC#Cc1c(I)n(C2OC(CO[Si](C)(C)C(C)(C)C)C3OC(C)(C)OC32)c(=O)[nH]c1=O (stereo not drawn)	24 µM
COC(=O)CC[C@@H](NC(=O)C(C)NC(=O)COC1C(O)C(COC(=O)CCCCCCCCCCNC(=O)c2ccc([N+](=O)[O-])c3[nH]c4cc(Br)ccc4c(=O)c23)OC(OCc2ccccc2)C1NC(C)=O)C(N)=O (stereo partly drawn)	> 100 µM
C/C(=C/CC[C@](C)(OC1OC(CO)C(O)C(O)C1OC1OC(C)C(O)C(O)C1O)[C@H]1CC[C@]2(C)[C@@H]1CC[C@@H]1[C@@]3(C)CC[C@H](O)C(C)(C)[C@@H]3C[C@H](O)[C@]12C)CO (stereo partly drawn)	> 100 µM
N#CCCN(CCN(CCN(C(=O)Nc1ccccc1)c1ccccc1)C(=O)Nc1ccccc1)C(=O)Nc1ccccc1	> 100 µM
CC(C)CC(NC(=O)[C@@H]1CCCN1C(=O)CNC(=O)c1ccc(N)cc1)C(=O)N[C@H](C)C(=O)NO (stereo partly drawn) (H-[4Abz]GP[ξL][dA]-{NHOH})	> 100 µM
O=C(OCc1ccccc1[N+](=O)[O-])N1c2ccccc2[C@@]23O[C@]24CCC[C@H]3C#C/C=C\C#C[C@H]14	> 100 µM
COc1ccc(NC(=O)CC(=O)n2nc(-c3ccccc3)c(N=Nc3ccc(C)cc3)c2-c2ccccc2)cc1	49.5 µM
Oc1ccc(Br)cc1CN1CCN(Cc2ccc(Cl)cc2)CC1	> 100 µM
COC(=O)c1nc(N)[nH]c(=O)c1-c1ccc(Cl)cc1	> 100 µM
CCOC(=O)n1c2ccccc2c2c(O)c(OC)c3c(c21)C(=O)NC3=O	> 100 µM
Cc1cc(C)c2c(=O)n(CC(O)CN3CCN(c4ncccn4)CC3)sc2n1 (stereo not drawn)	31.6 µM
Cc1cc(C)c(-c2noc(-c3ccc(Cl)cc3)c2C2=NCCN2)c(C)c1	33.8 µM
COC(CO[Si](C)(C)N[Si](C)(C)OCC(OC)c1ccccc1)c1ccccc1 (stereo not drawn)	> 100 µM
COc1ccc2c(c1)Cc1cc(N=[N+]([O-])c3ccc4c(c3)Cc3cc(OC)ccc3-4)ccc1-2	85.4 µM
Cc1cc(C)cc(NC(=O)CCC(=O)C2CCC/C2=N\NC(=O)C(=O)NN)c1 (stereo not drawn)	> 100 µM
CCSc1sc(-c2ccc(C)cc2)nc1[P+](c1ccccc1)(c1ccccc1)c1ccccc1	1.24 µM
COC(=O)c1ccc2c(c1)[n+](=O)c(C(C)=O)c(C(F)(F)F)n2[O-]	3.14 µM
CCNc1nc2ccccc2nc1NCC	> 100 µM
Clc1cc(Cl)c2n[se]nc2c1	> 100 µM
COC1=C(C(=O)OC(C)(C)C)C23CCCCC2(C(C(=O)OC(C)(C)C)=C(OC)C3C(=O)OC(C)(C)C)C1C(=O)OC(C)(C)C (stereo not drawn)	> 100 µM
O=C(c1ccc(Cl)cc1)N(C(=S)N1CCN(c2ccccc2)CC1)C1CCCCC1	> 100 µM
O=C(CCCCCn1c2ccccc2c2c3c(c4c5ccccc5[nH]c4c21)C(=O)N(O)C3=O)N1CCOCC1	5.4 µM
O=C(CSCC(=O)N/N=C/c1ccc(F)cc1)N/N=C/c1ccc(F)cc1	> 100 µM
COc1ccc(/C(C#N)=C/c2nc3c(N4CCOCC4)nc(Cl)nc3n2C)cc1OC	1.68 µM
Cc1ccc(NC(=O)C(=O)C2C(=O)C3=C(CC2(C)C)NC2C=CC=CC2S3)c(C)c1 (stereo not drawn)	> 100 µM
CCC(C)CNC1=C(NC(C)=O)C(=O)c2ccccc2C1=O (stereo not drawn)	> 100 µM
